System: Pyrenophora teres
Assay: In vivo test on Pyrenophora teres (barley net blotch)
Conditions: dose of 500 ppm; barley plants; grading 12 days after contamination
endpoint name: protection (%)
Respond numerically; units are % and should not be typed.

>>> readout_value("CC(C)Cn1cc(-c2ccnc(NC(=O)C3CC3)c2)c(-c2ccc(Cl)s2)n1")
70
>>> readout_value("Clc1ccc(-c2n[nH]cc2-c2ccncc2)s1")
90
>>> readout_value("CCn1cc(-c2ccnc(NC(=O)C3CC3)c2)c(-c2ccc(Cl)s2)n1")
90

// moving on: another record for protection
-- ask Need protection, item CC(C)C(=O)Nc1nccc(-c2cn(C(C)C)nc2-c2ccc(Cl)s2)n1
-- reply 90

---

Assay: logP by HPLC at pH 2.3 (0.1% phosphoric acid / acetonitrile)
Type: physicochemical
Conditions: method [a]: pH 2.3 with 0.1% phosphoric acid and acetonitrile as eluent
Here, each record is paired with measured log p data.

>>> readout_value("CC(C)Cn1cc(-c2ccnc(NC(=O)C3CC3)c2)c(-c2ccc(Cl)s2)n1")
"3.48^[a]"

-- ask Need log p, item CC(C)Nc1nccc(-c2c[nH]nc2-c2ccc(Cl)s2)n1
-- reply 1.79^[a]

-- ask Note, next up: CC(C)Cn1cc(-c2ccnc(NC(=O)C3CCC3)c2)c(-c2ccc(Cl)s2)n1
-- reply 3.96^[a]

---

Settings: pH 2.7
Marks after values point to notes of the source that are not given here.
endpoint name: log p

Consider the reported log p for these molecules:
>>> readout_value("Clc1ccc(-c2nn(C3CCCCC3)cc2-c2ccncc2)s1")
"2.54^[b]"
>>> readout_value("CN(C)S(=O)(=O)Nc1cc(-c2cn(C)nc2-c2ccc(Cl)s2)ccn1")
"2.23^[b]"
>>> readout_value("C=CCn1cc(-c2ccnc(NC(C)C)n2)c(-c2ccc(Cl)s2)n1")
"2.68^[b]"
>>> readout_value("CCC(=O)Nc1cc(-c2cn(C)nc2-c2ccc(Cl)s2)ccn1")
"2.05^[b]"
>>> readout_value("CC(n1ncc(-c2ccncn2)c1-c1ccc(Cl)s1)C(C)(C)C (stereo not shown)")
"4.46^[b]"
>>> readout_value("CCn1cc(-c2ccncc2)c(-c2ccc(Br)s2)n1")
"1.6^[b]"

// moving on: another record for log p
-- ask Need log p, item CC(=O)Nc1cc(-c2cnn(/C=C/F)c2-c2ccc(Cl)s2)ccn1
-- reply 2.84^[b]

---

System: Fusarium graminearum
Assay type: cell-based
Details: 50 μM; 7 days at 28° C.
Here, each record is paired with measured % Inhibition of DON/AcDON at 50 μM data.
Respond numerically; units are % and should not be typed.

>>> readout_value("N#CCCn1cc(-c2ccncc2)c(-c2cc3ccsc3s2)n1")
99
>>> readout_value("CCC(C)n1cc(-c2ccncc2)c(-c2ccc(Br)s2)n1 (stereo not drawn)")
99
>>> readout_value("CCn1cc(-c2ccnc(NC(=O)C3CCC3)c2)c(-c2ccc(Cl)s2)n1")
87
>>> readout_value("FC(F)Cn1cc(-c2ccncc2)c(-c2cc3ccsc3s2)n1")
99
>>> readout_value("CCn1cc(-c2ccnc(Cl)c2)c(-c2ccc(Cl)s2)n1")
87
>>> readout_value("CC(C)(C)Cn1cc(-c2ccncc2)c(-c2ccc(Br)s2)n1")
99

-- ask Need % Inhibition of DON/AcDON at 50 μM, item CC1(Cn2cc(-c3ccncc3)c(-c3ccc(Br)s3)n2)CC1(Cl)Cl (stereo not drawn)
-- reply 99

-- ask Note, next up: CC#Cc1c(-c2ccncc2)c(-c2ccc(Cl)s2)nn1C(C)C
-- reply 93

-- ask Note, next up: CC(C)n1cc(-c2ccncc2)c(-c2cc3ccsc3s2)n1
-- reply 98

-- ask Note, next up: CCC(C)n1cc(-c2ccnc(NC(=O)C(C)C)c2)c(-c2ccc(Cl)s2)n1 (stereo not drawn)
-- reply 96

-- ask Note, next up: CCn1cc(-c2ccnc(NC(C)=O)c2)c(-c2ccc(Cl)s2)n1
-- reply 99

-- ask Note, next up: CCn1cc(-c2ccnc(NC(=O)CC3CC3)c2)c(-c2ccc(Cl)s2)n1
-- reply 99

-- ask Note, next up: N#CCCn1cc(-c2ccncc2)c(-c2ccc(F)s2)n1
-- reply 98

-- ask Note, next up: CC(C)Nc1nccc(-c2c[nH]nc2-c2ccc(Cl)s2)n1
-- reply 99

-- ask Note, next up: CC(C)Cn1cc(-c2ccncc2)c(-c2cc3ccsc3s2)n1
-- reply 99

---

System: Fusarium graminearum
Type: cell-based
Settings: 50 μM; 7 days at 28° C.
endpoint name: % Inhibition of DON/AcDON at 50 μM

>>> readout_value("C=CC(C)n1cc(-c2ccncc2)c(-c2ccc(F)s2)n1 (centres unmarked)")
"99%"
>>> readout_value("Cn1cc(-c2ccnc(NC(=O)C3CC3)c2)c(-c2ccc(Cl)s2)n1")
"98%"
>>> readout_value("CCC(C)n1cc(-c2ccnc(NC3CC3)n2)c(-c2ccc(Cl)s2)n1 (centres unmarked)")
"99%"
>>> readout_value("CC(C)Cn1cc(-c2ccncc2)c(-c2ccc(Br)s2)n1")
"99%"
>>> readout_value("CCC(C)n1cc(-c2ccncc2)c(-c2ccc(F)s2)n1 (centres unmarked)")
"99%"
>>> readout_value("Brc1ccc(-c2n[nH]cc2-c2ccncc2)s1")
"97%"
>>> readout_value("N#CCCn1cc(-c2ccncc2)c(-c2ccc(Br)s2)n1")
"99%"

// moving on: another record for % Inhibition of DON/AcDON at 50 μM
-- ask Need % Inhibition of DON/AcDON at 50 μM, item CCC(C)n1cc(-c2ccnc(N)c2)c(-c2ccc(Cl)s2)n1 (centres unmarked)
-- reply 100%

---

Assay: physchem
Conditions: pH 2.7
endpoint name: log p
Please state the value as a number alone, without comment.

>>> readout_value("Clc1cc(-c2c[nH]nc2-c2ccc(Cl)s2)ccn1")
2.75

-- ask Need log p, item CC(=O)N(C(C)=O)c1nccc(-c2cn(C(C)C)nc2-c2ccc(Cl)s2)n1
-- reply 3.33

-- ask Note, next up: CCC(C)n1cc(-c2ccnc(Cl)c2)c(-c2ccc(Cl)s2)n1 (stereo not drawn)
-- reply 4.9

---

Details: pH 2.3
Marks after values point to notes of the source that are not given here.
endpoint name: log p

-- ask Need log p, item CC(C)Cn1cc(-c2cc[n+]([O-])c(Cl)c2)c(-c2ccc(Cl)s2)n1
-- reply 3.04^[a]

-- ask Note, next up: CCC(C)n1cc(-c2ccnc(N(C(C)=O)C(C)=O)n2)c(-c2ccc(Cl)s2)n1 (centres unmarked)
-- reply 3.72^[a]

-- ask Note, next up: NNc1nccc(-c2c[nH]nc2-c2ccc(Cl)s2)n1
-- reply 2.26^[a]

-- ask Note, next up: CCC(C)n1cc(-c2ccnc(NC3COC3)n2)c(-c2ccc(Cl)s2)n1 (centres unmarked)
-- reply 3.09^[a]

-- ask Note, next up: CC(C)Cn1ncc(-c2ccnc(NCc3ccccc3)n2)c1-c1ccc(Cl)s1
-- reply 3.96^[a]

---

System: Alternaria solani
Experiment: Alternaria test (tomato) / protective
Type: in vivo
Settings: 500 ppm active compound, protective spray, evaluated 7 days after inoculation
endpoint name: efficacy (%)
Respond numerically; units are % and should not be typed.

>>> readout_value("CC(C)n1cc(-c2ccnc(NC(=O)N(C)C)c2)c(-c2ccc(Cl)s2)n1")
90
>>> readout_value("CCn1nc(-c2ccc(Cl)s2)c(-c2ccncc2)c1C")
95
>>> readout_value("CC(C)Cn1cc(-c2ccnc(N)c2)c(-c2ccc(Cl)s2)n1")
89
>>> readout_value("CCC(=O)Nc1cc(-c2cn(C(C)CC)nc2-c2cc(Cl)cs2)ccn1 (stereo not shown)")
90

-- ask Need efficacy, item CCC(=O)Nc1cc(-c2c(-c3ccc(Cl)s3)nn(C)c2C)ccn1
-- reply 90

-- ask Note, next up: FC(F)(F)Cn1cc(-c2ccncc2)c(-c2cc3ccsc3s2)n1
-- reply 94

-- ask Note, next up: CC(C)n1cc(-c2ccnc(NC(=O)C3CC3)c2)c(-c2ccc(Cl)s2)n1
-- reply 95

-- ask Note, next up: CCC(CC)n1cc(-c2ccncc2)c(-c2ccc(F)s2)n1
-- reply 89

-- ask Note, next up: CC(C)Cn1cc(-c2ccnc(N(C(=O)C3CC3)C(=O)C3CC3)c2)c(-c2ccc(Cl)s2)n1
-- reply 78

-- ask Note, next up: CCC(=O)Nc1cc(-c2c(-c3ccc(Cl)s3)nn(C(C)C)c2C)ccn1
-- reply 90

-- ask Note, next up: FC(F)(F)Cn1cc(-c2ccncc2)c(-c2ccc(Br)s2)n1
-- reply 100

-- ask Note, next up: CCC(C)C(=O)Nc1cc(-c2cn(C)nc2-c2ccc(Cl)s2)ccn1 (stereo not shown)
-- reply 90

-- ask Note, next up: CC(=O)Nc1cc(-c2cnn(/C=C/F)c2-c2ccc(Cl)s2)ccn1
-- reply 90

---

System: Pyrenophora teres
Experiment: In vivo test on Pyrenophora teres (barley net blotch)
Details: dose of 500 ppm; barley plants; grading 12 days after contamination
endpoint name: protection (%)
Respond numerically; units are % and should not be typed.

Consider the reported protection for these compounds:
>>> readout_value("CCC(C)n1cc(-c2ccnc(NC(=O)C3CCC3)c2)c(-c2ccc(Cl)s2)n1 (stereo not drawn)")
90
>>> readout_value("CCn1cc(-c2ccnc(NC(=O)[C@H](C)O)c2)c(-c2ccc(Cl)s2)n1")
90

-- ask Can you look up protection on Pyrenophora teres for CC(C)(C)Cn1cc(-c2ccncc2)c(-c2ccc(Cl)s2)n1 ?
-- reply 90
